- System: M. catarrhalis 2524
- EXPERIMENTAL_DETAILS: In vitro antibacterial activity test (broth microdilution)
- Assay type: cell-based
- ASSAY_CONTEXT: Moraxella catarrhalis; M. catarrhalis 2524; read-out: MIC90

# COMPOUND, VALUE_MODIFIER, MIC90, µg/mL
measured = [
    ("C[C@H](O/N=C(\\C(=O)N[C@@H]1C(=O)N2C(C(=O)[O-])=C(C[n+]3cnc(N)c(NC(=O)CCNC(=O)c4cc(=O)c(O)cn4O)c3)CSC12)c1nc(N)sc1Cl)C(=O)O (stereo partly drawn)", "=", 0.5),
    ("CC(C)(O/N=C(\\C(=O)N[C@@H]1C(=O)N2C(C(=O)[O-])=C(/C=C/C[n+]3cnc(N)c(NCCNC(=O)c4cc(=O)c(O)cn4O)c3)CSC12)c1nsc(N)n1)C(=O)O (stereo partly drawn)", "<", 0.0625),
    ("CC(C)(O/N=C(\\C(=O)N[C@@H]1C(=O)N2C(C(=O)[O-])=C(/C=C/C[n+]3cnc(N)c(NCCNC(=O)c4cc(=O)c(O)cn4O)c3)CSC12)c1nc(N)sc1Cl)C(=O)O (stereo partly drawn)", "<", 0.0625),
    ("CC(C)(O/N=C(\\C(=O)N[C@@H]1C(=O)N2C(C(=O)[O-])=C(C[n+]3cnc(N)c(NC(=O)CCNC(=O)c4cc(=O)c(O)cn4O)c3)CSC12)c1nc(N)sc1Cl)C(=O)O (stereo partly drawn)", "=", 0.5),
    ("C[C@H](O/N=C(\\C(=O)N[C@@H]1C(=O)N2C(C(=O)[O-])=C(C[n+]3cnc(N)c(NCCNC(=O)c4ccc(O)c(O)c4)c3)CSC12)c1csc(N)n1)C(=O)O (stereo partly drawn)", "=", 1),
    ("C[C@H](O/N=C(\\C(=O)N[C@@H]1C(=O)N2C(C(=O)[O-])=C(/C=C/C[n+]3cnc(N)c(NCCNC(=O)c4cc(=O)c(O)cn4O)c3)CSC12)c1nc(N)sc1Cl)C(=O)O (stereo partly drawn)", "<", 0.0625),
    ("CC(C)(O/N=C(\\C(=O)N[C@@H]1C(=O)N2C(C(=O)[O-])=C(/C=C/C[n+]3cnc(N)c(NC(=O)CCNC(=O)c4cc(=O)c(O)cn4O)c3)CSC12)c1csc(N)n1)C(=O)O (stereo partly drawn)", "=", 1),
    ("Cn1cc(O)c(=O)cc1C(=O)NCCNc1c[n+](CC2=C(C(=O)[O-])N3C(=O)[C@@H](NC(=O)/C(=N\\OC(C)(C)C(=O)O)c4csc(N)n4)C3SC2)cnc1N (stereo partly drawn)", "=", 1),
    ("C[C@H](O/N=C(\\C(=O)N[C@@H]1C(=O)N2C(C(=O)[O-])=C(/C=C/C[n+]3cnc(N)c(NCCNC(=O)c4cc(=O)c(O)cn4O)c3)CSC12)c1csc(N)n1)C(=O)O (stereo partly drawn)", "=", 0.5),
]
